B1: LYSMD4 (parent)
chain: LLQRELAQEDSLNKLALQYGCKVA

Variants of: B1
Test: protein stability index of a GFP-peptide fusion (GPS, HEK-293T) (PSI 1-6); higher = more stable;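 also: lentivirally expressed fusions sorted by FACS into six bins by GFP to DsRed ratio, PSI derived from sequencing read proportions per bin multiplied by bin number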
Details: c terminus: a fixed tail appended
value-type: protein stability index
// no unit, no text: just the number

Take a look at these entries with their results.
Input line: Query: protein stability index; subject: `LLQREEAQEDSLNKLALQYGCKVA`
Output line: 3

Input line: Please give the measured protein stability index for this variant: `LLLRELAQEDSLNKLALQYGCKVA`
Output line: 1.59

Input line: Endpoint output: protein stability index of `LLQRELAQEDSLNKLALQYGCKLA` . Value?
Output line: 2.04

New cases:
Input line: So what does the record say about protein stability index for `LLQRELAQEDSLNKQALQYGCKVA` ?
Output line: 3.65

Input line: Given the variant `LVQRELAQEDSLNKLALQYGCKVA` , what is its reported protein stability index?
Output line: 2.29

Input line: Param item = `LLQRELAQEDSLNKLAQQYGCKVA` ; retrieve measured protein stability index.
Output line: 2.12
